Assay name: Solubility of the compound at pH 7.4 after 18 hrs by UV spectroscopic analysis
Assay type: physicochemical
Measurement setup: buffer
Experimental endpoint: solubility at 18 h
Field note: include the unit after the figure.

{"Chemical string": "CCC(CC)c1ccc2c(NCCCNCc3cccc(OC)c3O)ccnc2c1", "Result": "4.2 µM"}
{"Chemical string": "COc1cccc(CNCCCNc2ccnc3cc(-c4ccccc4)ccc23)c1O", "Result": "32 µM"}
{"Chemical string": "FC(F)(F)c1cc(-c2ccc3c(NCCCNCc4ccco4)ccnc3c2)cc(C(F)(F)F)c1", "Result": "32 µM"}
{"Chemical string": "c1ccc(-c2ccc3c(NCCCNCc4ccco4)ccnc3c2)cc1", "Result": "32 µM"}
{"Chemical string": "Fc1ccc(Oc2ccc3c(NCCCNCc4ccco4)ccnc3c2)cc1", "Result": "14.5 µM"}

# batch size: 3; output solubility at 18 h per entry
1. COc1ccc(F)cc1CNCCCNc1ccnc2cc(-c3cccc4ccccc34)ccc12
2. c1ccc(Cc2ccc3c(NCCCNCc4ccco4)ccnc3c2)cc1
3. COc1cccc(CNCCCNc2ccnc3cc(Cc4cc(C)cc(C)c4)ccc23)c1O

1. 32 µM
2. 4.2 µM
3. 4.2 µM

# batch size: 7; output solubility at 18 h per entry
1. COc1ccc(F)cc1CNCCCNc1ccnc2cc(CC(C)C)ccc12
2. COc1cccc(CNCCCNc2ccnc3cc(CCc4ccccc4)ccc23)c1O
3. CCC(CC)c1ccc2c(NCCCNCc3ccc4c(c3)OCO4)ccnc2c1
4. COc1cccc(CNCCCNc2ccnc3cc(CCC(C)C)ccc23)c1O
5. COc1cccc(CNCCCNc2ccnc3cc(-c4ccc(C(C)(C)C)cc4)ccc23)c1O
6. COc1ccc(F)cc1CNCCCNc1ccnc2cc(Oc3cccc(N(C)C)c3)ccc12
7. c1ccc(Oc2ccc3c(NCCCNCc4ccc5c(c4)OCO5)ccnc3c2)cc1

1: 4.2 µM; 2: 4.2 µM; 3: 4.2 µM; 4: 4.2 µM; 5: 32 µM; 6: 14.5 µM; 7: 14.5 µM

# batch size: 3; output solubility at 18 h per entry
1. FC(F)(F)c1cccc(Cc2ccc3c(NCCCNCc4ccc5c(c4)OCO5)ccnc3c2)c1
2. Cc1cc(C)cc(Cc2ccc3c(NCCCNCc4ccco4)ccnc3c2)c1
3. COc1ccc(F)cc1CNCCCNc1ccnc2cc(-c3ccc(C(C)(C)C)cc3)ccc12

4.2 µM
4.2 µM
32 µM

# batch size: 4; output solubility at 18 h per entry
1. COc1ccc(F)cc1CNCCCNc1ccnc2cc(Cc3ccc(F)cc3Cl)ccc12
2. Clc1ccc(Oc2ccc3c(NCCCNCc4ccco4)ccnc3c2)cc1
3. COc1ccc(-c2ccc3c(NCCCNCc4ccco4)ccnc3c2)cc1
4. CC(C)(C)c1ccc(-c2ccc3c(NCCCNCc4ccco4)ccnc3c2)cc1

4.2 µM
14.5 µM
32 µM
32 µM

# batch size: 8; output solubility at 18 h per entry
1. COc1cccc(CNCCCNc2ccnc3cc(-c4cc(C(F)(F)F)cc(C(F)(F)F)c4)ccc23)c1O
2. CCC(CC)c1ccc2c(NCCCNCc3cc(F)ccc3OC)ccnc2c1
3. Clc1ccc(Oc2ccc3c(NCCCNCc4ccc5c(c4)OCO5)ccnc3c2)cc1
4. COc1ccc(Oc2ccc3c(NCCCNCc4ccco4)ccnc3c2)cc1
5. COc1cccc(CNCCCNc2ccnc3cc(Cc4cccc(C(F)(F)F)c4)ccc23)c1O
6. COc1cccc(CNCCCNc2ccnc3cc(CC4CCCCC4)ccc23)c1O
7. COc1cccc(CNCCCNc2ccnc3cc(Oc4ccc(F)cc4)ccc23)c1O
8. c1coc(CNCCCNc2ccnc3cc(Cc4ccc5c(c4)OCO5)ccc23)c1

1. 32 µM
2. 4.2 µM
3. 14.5 µM
4. 14.5 µM
5. 4.2 µM
6. 4.2 µM
7. 14.5 µM
8. 32 µM

# batch size: 5; output solubility at 18 h per entry
1. COc1ccc(F)cc1CNCCCNc1ccnc2cc(-c3ccccc3)ccc12
2. COc1ccc(F)cc1CNCCCNc1ccnc2cc(CC3CCCCC3)ccc12
3. Cc1cc(C)cc(Cc2ccc3c(NCCCNCc4ccc5c(c4)OCO5)ccnc3c2)c1
4. COc1cccc(CNCCCNc2ccnc3cc(CC(C)C)ccc23)c1O
5. COc1cccc(CNCCCNc2ccnc3cc(Oc4cccc(N(C)C)c4)ccc23)c1O

32 µM
4.2 µM
4.2 µM
4.2 µM
14.5 µM
